- system under test: P. falciparum apicoplast DNA polymerase (Pf-apPOL) (Plasmodium falciparum, UniProt Q8ILY1)
- Sequence (Q8ILY1 entry or part of it): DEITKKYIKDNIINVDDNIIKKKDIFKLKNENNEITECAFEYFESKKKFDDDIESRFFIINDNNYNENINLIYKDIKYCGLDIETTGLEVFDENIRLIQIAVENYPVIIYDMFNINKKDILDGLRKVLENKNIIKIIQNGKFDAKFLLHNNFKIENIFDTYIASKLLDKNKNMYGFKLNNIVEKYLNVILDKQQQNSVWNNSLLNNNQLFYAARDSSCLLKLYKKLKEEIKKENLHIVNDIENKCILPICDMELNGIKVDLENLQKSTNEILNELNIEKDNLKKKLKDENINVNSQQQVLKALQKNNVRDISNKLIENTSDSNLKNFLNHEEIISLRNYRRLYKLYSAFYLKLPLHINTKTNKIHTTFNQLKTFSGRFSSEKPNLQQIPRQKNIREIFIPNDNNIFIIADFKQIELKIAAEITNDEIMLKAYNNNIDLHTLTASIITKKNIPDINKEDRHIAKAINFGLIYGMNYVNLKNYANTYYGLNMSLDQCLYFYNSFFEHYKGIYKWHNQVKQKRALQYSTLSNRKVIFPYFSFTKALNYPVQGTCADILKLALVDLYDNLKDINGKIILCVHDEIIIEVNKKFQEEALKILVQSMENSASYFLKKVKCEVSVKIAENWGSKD
- protocol notes: Fluorescence-based high-throughput DNA polymerase assay (molecular beacon), primary screen and dose-response
- Assay type: biochemical
- assay conditions: primary screen hit value, DNA Pol (186 hits); 90 min, 10 µM
Decision: DNA Pol compared against 40; not below it gives met, below it gives not met.

Solved entries (count: 5):
Prompt line: In plain terms: is recorded DNA Pol at least 40 for O=C(c1c[nH]c2ncccc12)N1CCCCCC1 [Molecule 51, O=C(c1c[nH]c2c1cccn2)N1CCCCCC1] ?
Response line: not met

Prompt line: In plain terms: is recorded DNA Pol at least 40 for CCOc1ccccc1-c1nc(-c2ccc(=O)[nH]c2)no1 [Molecule 76, CCOc1ccccc1c1onc(n1)c1ccc(=O)[nH]c1] ?
Response line: not met

Prompt line: In plain terms: is recorded DNA Pol at least 40 for O=C(O)CC1=NN(c2cccc([N+](=O)[O-])c2)C(=O)C1 ?
Response line: not met

Prompt line: In plain terms: is recorded DNA Pol at least 40 for O=C(Nc1nnc(-c2cccs2)o1)c1ccc([N+](=O)[O-])o1 ?
Response line: met

Prompt line: In plain terms: is recorded DNA Pol at least 40 for COc1cc(/C=C2\S/C(=N/C(C)=O)NC2=O)cc(Br)c1OCC(=O)O ?
Response line: not met

Next up:
Prompt line: In plain terms: is recorded DNA Pol at least 40 for O=[N+]([O-])c1cc2c(cc1CN1CCCCCC1)OCO2 ?
Response line: not met
